Tested on: 354836-022-R-J1-PDC multicell spheroid viability
Experiment: Anticancer human tumor 354836-022-R-J1-PDC patient-derived head and neck squamous cell carcinoma cell line growth inhibition [PI3K]
Settings: second compound 0.0316 µM; first compound 3.16 µM; stronger effect = lower value
quantity name: viability, T/C (%)
Answers are plain numbers, in %.

Use the examples below as a reference point.
compound | viability, T/C / %
CNC(=O)c1ccc(N2C(=S)N(c3ccc(C#N)c(C(F)(F)F)c3)C(=O)C2(C)C)cc1F + CC(Nc1ccc2c(c1)OCCn1cc(N3C(=O)OCC3C(F)F)nc1-2)C(N)=O | 87.9
CC(C)NCC(C(=O)N1CCN(c2ncnc3c2C(C)CC3O)CC1)c1ccc(Cl)cc1 (stereo not drawn) + CC(Nc1ccc2c(c1)OCCn1cc(N3C(=O)OCC3C(F)F)nc1-2)C(N)=O | 21.3

# map each compound to its viability, T/C
1. CCCS(=O)(=O)Nc1ccc(F)c(C(=O)c2c[nH]c3ncc(-c4ccc(Cl)cc4)cc23)c1F + COc1c(OCCCN2CCOCC2)ccc2c3n(c(=NC(=O)c4cnc(N)nc4)nc12)CCN3
2. CC1(C)CCC(CN2CCN(c3ccc(C(=O)NS(=O)(=O)c4ccc(NCC5CCOCC5)c([N+](=O)[O-])c4)c(Oc4cnc5[nH]ccc5c4)c3)CC2)=C(c2ccc(Cl)cc2)C1 + COc1c(OCCCN2CCOCC2)ccc2c3n(c(=NC(=O)c4cnc(N)nc4)nc12)CCN3
3. Cn1ncc(Cl)c1-c1cc(C(=O)NC(CN)Cc2cccc(F)c2)sc1Cl (stereo not drawn) + Cc1nc(NC(=O)N2CCCC2C(N)=O)sc1-c1ccnc(C(C)(C)C(F)(F)F)c1
4. C#Cc1c(F)ccc2cc(O)cc(-c3ncc4c(N5CC6CCC(C5)N6)nc(OCC56CCCN5CC(F)C6)nc4c3F)c12 (stereo not drawn) + Cc1nc(NC(=O)N2CCCC2C(N)=O)sc1-c1ccnc(C(C)(C)C(F)(F)F)c1

Response line:
1. 64
2. 58
3. 17.9
4. 106

# batch: return viability, T/C for each of the 2 compounds below
1. C=CC(=O)N1CCN(c2nc(=O)n(-c3c(C)ccnc3C(C)C)c3nc(-c4c(O)cccc4F)c(F)cc23)C(C)C1 (stereo not drawn) + CC(Nc1ncnc2nc[nH]c12)c1cc2cccc(Cl)c2c(=O)n1-c1ccccc1
2. C=CC(=O)N1CCN(c2nc(=O)n(-c3c(C)ccnc3C(C)C)c3nc(-c4c(O)cccc4F)c(F)cc23)C(C)C1 (stereo not drawn) + Cc1nc(NC(=O)N2CCCC2C(N)=O)sc1-c1ccnc(C(C)(C)C(F)(F)F)c1

Response line:
98.7
113

---

System: 354836-022-R-J1-PDC multicell spheroid viability
Assay: Anticancer human tumor 354836-022-R-J1-PDC cell line growth inhibition [PI3K]; active = viability on the fitted dose curve at most 10% of control; inactive = the rest;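 note: spheroids exposed to agents for seven days before the viability read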
Settings: second compound 1 µM; first compound 0.0316 µM
Pick one and only one: active, inactive

compound | study system | class assignment
C=CC(=O)N1CCN(c2nc(=O)n(-c3c(C)ccnc3C(C)C)c3nc(-c4c(O)cccc4F)c(F)cc23)C(C)C1 (configuration not stated) + CC(Nc1ccc2c(c1)OCCn1cc(N3C(=O)OCC3C(F)F)nc1-2)C(N)=O | 354836-022-R-J1-PDC multicell spheroid viability | inactive
C[C@@H](NC(=O)c1ncnc(N)c1Cl)c1ncc(C(=O)Nc2cc(C(F)(F)F)c(Cl)cn2)s1 + COc1c(OCCCN2CCOCC2)ccc2c3n(c(=NC(=O)c4cnc(N)nc4)nc12)CCN3 | 354836-022-R-J1-PDC multicell spheroid viability | active
Cn1ncnc1[C@H]1c2n[nH]c(=O)c3cc(F)cc(c23)N[C@@H]1c1ccc(F)cc1 + CC(Nc1ccc2c(c1)OCCn1cc(N3C(=O)OCC3C(F)F)nc1-2)C(N)=O | 354836-022-R-J1-PDC multicell spheroid viability | inactive
Cn1ncnc1[C@H]1c2n[nH]c(=O)c3cc(F)cc(c23)N[C@@H]1c1ccc(F)cc1 + COc1c(OCCCN2CCOCC2)ccc2c3n(c(=NC(=O)c4cnc(N)nc4)nc12)CCN3 | 354836-022-R-J1-PDC multicell spheroid viability | active
CC(Cn1ccc(-c2ccc(C#N)c(Cl)c2)n1)NC(=O)c1cc(C(C)O)[nH]n1 (configuration not stated) + COc1c(OCCCN2CCOCC2)ccc2c3n(c(=NC(=O)c4cnc(N)nc4)nc12)CCN3 | 354836-022-R-J1-PDC multicell spheroid viability | active
Cn1ncnc1[C@H]1c2n[nH]c(=O)c3cc(F)cc(c23)N[C@@H]1c1ccc(F)cc1 + CC(Nc1ncnc2nc[nH]c12)c1cc2cccc(Cl)c2c(=O)n1-c1ccccc1 | 354836-022-R-J1-PDC multicell spheroid viability | inactive
Cn1nccc1Nc1nccc(-c2ccn(C(CO)c3ccc(Cl)c(F)c3)c(=O)c2)n1 (configuration not stated) + CC(Nc1ncnc2nc[nH]c12)c1cc2cccc(Cl)c2c(=O)n1-c1ccccc1 | 354836-022-R-J1-PDC multicell spheroid viability | inactive
Cn1ncc(Cl)c1-c1cc(C(=O)NC(CN)Cc2cccc(F)c2)sc1Cl (configuration not stated) + COc1c(OCCCN2CCOCC2)ccc2c3n(c(=NC(=O)c4cnc(N)nc4)nc12)CCN3 | 354836-022-R-J1-PDC multicell spheroid viability | active
CC(=O)c1c(C)c2cnc(Nc3ccc(N4CCNCC4)cn3)nc2n(C2CCCC2)c1=O + CC(Nc1ccc2c(c1)OCCn1cc(N3C(=O)OCC3C(F)F)nc1-2)C(N)=O | 354836-022-R-J1-PDC multicell spheroid viability | inactive
CC1(C)CCC(Nc2ncc(C(F)(F)F)c(-c3c[nH]c4c(P(C)(C)=O)c(C#N)ccc34)n2)CN1 (configuration not stated) + Cc1nc(NC(=O)N2CCCC2C(N)=O)sc1-c1ccnc(C(C)(C)C(F)(F)F)c1 | 354836-022-R-J1-PDC multicell spheroid viability | inactive

Prompt line: Which outcome was entered for the compound CNC(=O)c1ccc(N2C(=S)N(c3ccc(C#N)c(C(F)(F)F)c3)C(=O)C2(C)C)cc1F + CC(Nc1ccc2c(c1)OCCn1cc(N3C(=O)OCC3C(F)F)nc1-2)C(N)=O in this test?
Response line: inactive

Prompt line: # fetch the recorded call for Cn1ncc(Cl)c1-c1cc(C(=O)NC(CN)Cc2cccc(F)c2)sc1Cl (configuration not stated) + Cc1nc(NC(=O)N2CCCC2C(N)=O)sc1-c1ccnc(C(C)(C)C(F)(F)F)c1 here
Response line: inactive

---

Tested on: 354836-022-R-J1-PDC multicell spheroid viability
Assay: Anticancer human tumor 354836-022-R-J1-PDC cell line growth inhibition [PI3K];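 note: spheroids exposed to agents for seven days before the viability read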
Conditions: second compound 10 µM; first compound 0.0316 µM; stronger effect = lower value
For each entry below, report its viability, T/C value.
Numbers only, in %.

A selection of reference data follows.
molecule | viability, T/C / %
C#Cc1c(F)ccc2cc(O)cc(-c3ncc4c(N5CC6CCC(C5)N6)nc(OCC56CCCN5CC(F)C6)nc4c3F)c12 (stereo unspecified) + CC(Nc1ncnc2nc[nH]c12)c1cc2cccc(Cl)c2c(=O)n1-c1ccccc1 | 95.3
CCN1CCN(Cc2ccc(Nc3ncc(F)c(-c4cc(F)c5nc(C)n(C(C)C)c5c4)n3)nc2)CC1 + Cc1nc(NC(=O)N2CCCC2C(N)=O)sc1-c1ccnc(C(C)(C)C(F)(F)F)c1 | 35
CCCS(=O)(=O)Nc1ccc(F)c(C(=O)c2c[nH]c3ncc(-c4ccc(Cl)cc4)cc23)c1F + CC(Nc1ncnc2nc[nH]c12)c1cc2cccc(Cl)c2c(=O)n1-c1ccccc1 | 89.7
CNC(=O)c1ccc(N2C(=S)N(c3ccc(C#N)c(C(F)(F)F)c3)C(=O)C2(C)C)cc1F + CC(Nc1ncnc2nc[nH]c12)c1cc2cccc(Cl)c2c(=O)n1-c1ccccc1 | 89.3
CC(C)n1nc(-c2ccc3oc(N)nc3c2)c2c(N)ncnc21 + CC(Nc1ncnc2nc[nH]c12)c1cc2cccc(Cl)c2c(=O)n1-c1ccccc1 | 33.3

Prompt line: Report viability, T/C for CCN1CCN(Cc2ccc(Nc3ncc(F)c(-c4cc(F)c5nc(C)n(C(C)C)c5c4)n3)nc2)CC1 + CC(Nc1ncnc2nc[nH]c12)c1cc2cccc(Cl)c2c(=O)n1-c1ccccc1 tested on 354836-022-R-J1-PDC multicell spheroid viability.
Response line: 90.1

---

Provide the reported viability, T/C of each item.
Test system: 354836-022-R-J1-PDC multicell spheroid viability
Test: Anticancer human tumor 354836-022-R-J1-PDC cell line growth inhibition [PI3K];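 note: spheroids exposed to agents for seven days before the viability read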
Conditions: second compound 0.01 µM; first compound 3.16 µM; stronger effect = lower value
Numbers only, in %.

Guide cases for viability, T/C, answers given:
molecule | uom | viability, T/C
CC(Cn1ccc(-c2ccc(C#N)c(Cl)c2)n1)NC(=O)c1cc(C(C)O)[nH]n1 (centres undefined) + CC(Nc1ccc2c(c1)OCCn1cc(N3C(=O)OCC3C(F)F)nc1-2)C(N)=O | % | 88.3
CCCS(=O)(=O)Nc1ccc(F)c(C(=O)c2c[nH]c3ncc(-c4ccc(Cl)cc4)cc23)c1F + CC(Nc1ccc2c(c1)OCCn1cc(N3C(=O)OCC3C(F)F)nc1-2)C(N)=O | % | 78.5
C[C@@H](NC(=O)c1ncnc(N)c1Cl)c1ncc(C(=O)Nc2cc(C(F)(F)F)c(Cl)cn2)s1 + CC(Nc1ccc2c(c1)OCCn1cc(N3C(=O)OCC3C(F)F)nc1-2)C(N)=O | % | 110

Shifting focus to the molecule that follows.
Prompt line: Look up viability, T/C for this molecule: CC(C)NCC(C(=O)N1CCN(c2ncnc3c2C(C)CC3O)CC1)c1ccc(Cl)cc1 (centres undefined) + CC(Nc1ccc2c(c1)OCCn1cc(N3C(=O)OCC3C(F)F)nc1-2)C(N)=O
Response line: 22.3

Provenance of the data: PubChem BioAssay AID1963981
